MIC data for M. catarrhalis ATCC23246 follow.

{"COMPOUND": "CC[C@H]1OC(=O)[C@H](C)[C@@H](O[C@H]2C[C@@](C)(OC)[C@@H](O)[C@H](C)O2)[C@H](C)[C@@H](O[C@@H]2O[C@H](C)C[C@H](N(C)C)[C@H]2O)[C@](C)(O)C[C@@H](C)CN(CCCNc2ccnc3cc(Cl)ccc23)[C@H](C)[C@@H](O)[C@]1(C)O", "MIC": "2 µg/mL"}
{"COMPOUND": "CC[C@H]1OC(=O)[C@H](C)[C@@H](O[C@H]2C[C@@](C)(OC)[C@@H](O)[C@H](C)O2)[C@H](C)[C@@H](O[C@@H]2O[C@H](C)C[C@H](N(C)C)[C@H]2O)[C@](C)(O)C[C@@H](C)CN(C)[C@H](C)[C@@H](O)[C@]1(C)O [Azithromycin, reference compound]", "MIC": "≤ 0.125 µg/mL"}
{"COMPOUND": "CC[C@H]1OC(=O)[C@H](C)[C@@H](O[C@H]2C[C@@](C)(OC)[C@@H](O)[C@H](C)O2)[C@H](C)[C@@H](O[C@@H]2O[C@H](C)C[C@H](N(C)C(C)=O)[C@H]2O)[C@](C)(O)C[C@@H](C)CN(CCCNC(=O)Nc2ccc3ccccc3c2)[C@H](C)[C@@H](O)[C@]1(C)O", "MIC": "32 µg/mL"}
{"COMPOUND": "CC[C@H]1OC(=O)[C@H](C)[C@@H](O)[C@H](C)[C@@H](O[C@@H]2O[C@H](C)C[C@H](N(C)C)[C@H]2OCCCNc2ccnc3ccccc23)[C@](C)(O)C[C@@H](C)CN[C@H](C)[C@@H](O)[C@]1(C)O", "MIC": "> 64 µg/mL"}
